Catalogue of compounds with associated Nuclear localization (% of total cells) IPF-1
Test system: YAP/TAZ
Assay: YAP/TAZ nuclear localization (immunofluorescence, automated imaging) in IPF patient-derived lung fibroblasts
Assay type: cell-based, human
Details: patient sample IPF-1; 10 μM, treated 2 hours prior to fixation
Procedure: 27A. […] IPF patient-derived lung fibroblasts cells treated 2 hours prior to fixation with diverse dopaminergic agonists (10 μM). N=4 different patient samples. % nuclear localization of YAP/TAZ was determined using automated imaging software. Scale bar represents 100 μm. 27C. cAMP measured in IPF patient-derived fibroblasts treated for 20 minutes with DHX. N=3. 27E. […]
Where a name gives a salt, the structure may show the parent alone.

Worked set:
- Compound: "CCCN(CCC)[C@@H]1CCc2c(OC)cccc2[C@@H]1C.O=C(O)/C=C\\C(=O)O [(+)-UH 232 maleate]"
  Observed: "61.9521 % of total cells"
- Compound: "C=CCN1CCc2c(cc(O)c(O)c2Cl)C(c2ccccc2)C1 (racemic) [(±)-SKF-82958•HBr]"
  Observed: "29.15 % of total cells"
- Compound: "Br.CCCN1CCc2cc(O)cc3c2[C@H]1Cc1ccc(O)c(O)c1-3"
  Observed: "32.87 % of total cells"

*Q* What value of Nuclear localization (% of total cells) IPF-1 has been recorded for this entry: CCCN(CCC)CCc1ccc(O)c(O)c1
*A* 69.18 % of total cells

*Q* What value of Nuclear localization (% of total cells) IPF-1 has been recorded for this entry: CCCN1CCC[C@@H]2Cc3nc(N)ncc3C[C@H]21.Cl.Cl [LY-163,502•2HCl]
*A* 73.37 % of total cells

*Q* What value of Nuclear localization (% of total cells) IPF-1 has been recorded for this entry: NCC1OC(c2ccccc2)Cc2c1ccc(O)c2O (stereo not drawn) [A 68930•HCl]
*A* 33.13 % of total cells

*Q* What value of Nuclear localization (% of total cells) IPF-1 has been recorded for this entry: COc1ccc2c(c1O)-c1cc(O)cc3c1[C@@H](C2)N(C)CC3.Cl
*A* 85.18 % of total cells

*Q* What value of Nuclear localization (% of total cells) IPF-1 has been recorded for this entry: Br.NC1CCc2cc(O)c(O)cc2C1 (stereo not drawn)
*A* 43.89 % of total cells

*Q* What value of Nuclear localization (% of total cells) IPF-1 has been recorded for this entry: Br.C=CCN1CCc2c(cc(O)c(O)c2Br)[C@@H](c2ccccc2)C1 [R(+)-6-BROMO-APB•HBr, R(+)-6-bromo-APB]
*A* 28.37 % of total cells

###

tested on: YAP/TAZ; assay: YAP/TAZ nuclear localization (immunofluorescence, automated imaging) in IPF patient-derived lung fibroblasts; type: cell-based, human; details: patient sample IPF-4; 10 μM, treated 2 hours prior to fixation
Structures can show the parent of a compound that is named as a salt.
Catalogue of compounds with associated Nuclear localization (% of total cells) IPF-4

Worked set:
- Compound: "CCCN1CCC[C@@H]2Cc3nc(N)ncc3C[C@H]21.Cl.Cl [LY-163,502•2HCl]"
  Observed: "66.49 % of total cells"
- Compound: "NCC1OC(c2ccccc2)Cc2c1ccc(O)c2O (stereo not shown) [A 68930•HCl]"
  Observed: "10.26 % of total cells"
- Compound: "C=CCN1CCc2nc(N)sc2CC1.Cl.Cl [B-HT 920•2HCl]"
  Observed: "76.24 % of total cells"
- Compound: "CCCN(CCC)CCc1ccc(O)c(O)c1"
  Observed: "51.82 % of total cells"
- Compound: "Br.CCCN1CCc2cc(O)cc3c2[C@H]1Cc1ccc(O)c(O)c1-3"
  Observed: "25.36 % of total cells"
- Compound: "NC[C@@H]1O[C@H](C23CC4CC(CC(C4)C2)C3)Cc2c1ccc(O)c2O [A-77636•HCl•H2O]"
  Observed: "37.79 % of total cells"
- Compound: "CCCN(CCc1ccccc1)C1CCc2c(O)cccc2C1.Cl (racemic)"
  Observed: "56.552 % of total cells"
- Compound: "CN1Cc2ccccc2C2c3cccc4[nH]cc(c34)CC21 (stereo not shown)"
  Observed: "19.82 % of total cells"
- Compound: "NCCc1cccc(O)c1 [3-Hydroxyphenethylamine•HCl, 3-Hydroxyphenethylamine]"
  Observed: "58.37 % of total cells"

Now let's try a different one.
*Q* What value of Nuclear localization (% of total cells) IPF-4 has been recorded for this entry: Br.NC1CCc2cc(O)c(O)cc2C1 (stereo not shown)
*A* 52.65 % of total cells

###

test system: αSMA; experiment: αSMA intensity (fibroblast activation) in IPF patient-derived lung fibroblasts + TGFβ; assay type: cell-based, human; conditions: Homo sapiens, SMA; patient sample IPF-1; 1 μM + TGFβ, treated for 72 hours; read-out: αSMA intensity (% of DMSO control) IPF-1
Where a name gives a salt, the structure may show the parent alone.
Would you mind labelling by activity at 1 µM? At or over 50% is 1.0, under is 0.0.

A selection of reference data follows.
- Molecule: "NC[C@@H]1O[C@H](C23CC4CC(CC(C4)C2)C3)Cc2c1ccc(O)c2O [A-77636•HCl•H2O]"
  Class Name: 0.0
- Molecule: "CN1Cc2ccccc2C2c3cccc4[nH]cc(c34)CC21 (stereo not shown)"
  Class Name: 0.0
- Molecule: "CCCN(CCC)CCc1cccc2c1CC(=O)N2 [Ropinirole HCl, Ropinirole]"
  Class Name: 1.0
- Molecule: "Oc1cc2c(cc1O)[C@H]1c3ccccc3CN[C@@H]1CC2 (racemic) [Dihydrexidine, dihydrexidine]"
  Class Name: 0.0
- Molecule: "Oc1ccc(C2CNCCc3c2cc(O)c(O)c3Cl)cc1 (stereo not shown) [Fenoldopam•HCl, Fenoldopam]"
  Class Name: 1.0
- Molecule: "CN1C[C@@H](NS(=O)(=O)N(C)C)C[C@@H]2c3cccc4c3c(cn4C)C[C@H]21 [Mesulergine•HCl, Mesulergine]"
  Class Name: 0.0

*Q* Entry NCCc1ccc(O)c(O)c1 [Dopamine•HCl, Dopamine] : is its activity at 1 µM no less than 50%?
*A* 0.0

*Q* Entry CC(C)C[C@H]1C(=O)N2CCC[C@H]2[C@]2(O)O[C@](NC(=O)[C@@H]3C=C4c5cccc6[nH]c(Br)c(c56)C[C@H]4N(C)C3)(C(C)C)C(=O)N12 [Bromocriptine mesylate, Bromocriptine] : is its activity at 1 µM no less than 50%?
*A* 1.0

*Q* Entry NCCc1cccc(O)c1 [3-Hydroxyphenethylamine•HCl, 3-Hydroxyphenethylamine] : is its activity at 1 µM no less than 50%?
*A* 1.0

*Q* Entry c1cnc(N2CCN(Cc3ccc4c(c3)OCO4)CC2)nc1 [Piribedil•2HCl, Piribedil] : is its activity at 1 µM no less than 50%?
*A* 1.0

###

System: YAP/TAZ
Test: YAP/TAZ nuclear localization (immunofluorescence, automated imaging) in IPF patient-derived lung fibroblasts
Type: cell-based, human
Settings: patient sample IPF-1; 10 μM, treated 2 hours prior to fixation
Method: 27A. […] IPF patient-derived lung fibroblasts cells treated 2 hours prior to fixation with diverse dopaminergic agonists (10 μM). N=4 different patient samples. % nuclear localization of YAP/TAZ was determined using automated imaging software. Scale bar represents 100 μm. 27C. cAMP measured in IPF patient-derived fibroblasts treated for 20 minutes with DHX. N=3. 27E. […]
Structures can show the parent of a compound that is named as a salt.
Catalogue of compounds with associated Nuclear localization (% of total cells) IPF-1

Worked set:
- Compound: "Cc1cccc(C(=O)NCN2CCN(c3ccccc3C#N)CC2)c1.O=C(O)/C=C\\C(=O)O [PD 168077 maleate]"
  Observed: "67.08 % of total cells"
- Compound: "C=CCN1CCc2nc(N)sc2CC1.Cl.Cl [B-HT 920•2HCl]"
  Observed: "75.68 % of total cells"

Now let's try a different one.
*Q* What value of Nuclear localization (% of total cells) IPF-1 has been recorded for this entry: CNCCc1ccc(O)c(O)c1 [N-Methyldopamine•HCl, N-Methyldopamine]
*A* 43.16 % of total cells

###

test system: αSMA; assay: αSMA intensity (fibroblast activation) in IPF patient-derived lung fibroblasts + TGFβ; assay type: cell-based, human; settings: Homo sapiens, SMA; patient sample IPF-1; 1 μM + TGFβ, treated for 72 hours; read-out: αSMA intensity (% of DMSO control) IPF-1
Structures can show the parent of a compound that is named as a salt.
Would you mind labelling by activity at 1 µM? At or over 40% is Criterion met, under is Criterion not met.

- Compound: "CCCN1C[C@H](CSC)C[C@@H]2c3cccc4[nH]cc(c34)C[C@H]21 [Pergolide mesylate, Pergolide]"
  Class Name: "Criterion met"

Turning to the following compound.
*Q* Entry Oc1cc2c(cc1O)[C@@H](c1ccccc1)CNCC2 : is its activity at 1 µM no less than 40%?
*A* Criterion not met
